growth inhibition values, listed per item
- ASSAY COMMENT: NCI Yeast Anticancer Drug Screen. Data for the rad18 strain (AID 177)
- RECORDED CONDITIONS: S. cerevisiae rad18 mutant growth inhibition; at 1.2 µM; hits give high values
The panel holds about 79,000 compounds, 15% with a hit somewhere; the sample as a whole holds those more often.
PARAMETER MEASURED: growth inhibition (%)

- CCOc1ccc2ccc3cccnc3c2n1: -3
- S=C1NC2=C(CSC/C2=C\c2ccc(Cl)cc2)C(c2ccc(Cl)cc2)N1 (stereo not drawn): 15
- CCOC(=O)c1[nH]c2cccc3c2c1CC(Br)C3=O (stereo not drawn): -39
- CN(C)CCNC(=O)c1cccc2nc3c(ccc4ccccc43)nc12: -2
- CN(C)N=Nc1ccc(NC=O)cc1: 19
- O=Cc1ccccc1B(O)O: 1
- O=S(=O)(CCC[C@H]1[C@@H](CCOCc2ccccc2)C2CCCN1O2)c1ccccc1 (stereo partly drawn): 2
- CC(=O)CC[N+](C)(C)C: -20
- OC1C#CCSCC#C/C=C\1 (stereo not drawn): -27
- CCC(C)C(=O)OCC(=O)c1ccc(-c2ccccc2)cc1 (stereo not drawn): -1
- CCOC(=O)c1sc2[n+](c1C)C(=O)/C(=C/c1cc(OC)c(OC)c(OC)c1)S2: 19
- CCCCCCCCCC/C=C\CC(=O)O: -3
- C#CC1=CC(=O)C(OC)=CC1=O: 40
- COc1cc(C(C)C(C(=O)O)C(=O)C(=O)O)cc(OC)c1OC (stereo not drawn): -5
- BrC/C=C/C[P+](c1ccccc1)(c1ccccc1)c1ccccc1: 9
- Cc1ccc(Cl)c2c(=O)c3ccccc3[nH]c12: 1
- NNc1nnc(-c2ccccc2)nc1Cc1ccccc1: -17
- CN(C)c1ccc(/C=C/c2ccnc3ccc4ccccc4c23)cc1: 2
- Cc1ccc2c(/C=C/c3ccc(N(C)C)cc3)ccnc2c1C: 1
- CN1CCN(c2ccc3nc(-c4ccc5nc(-c6ccc(O)cc6)[nH]c5c4)[nH]c3c2)CC1: -12
- O=[N+]([O-])c1ccc2nnnn2c1: 1
- Cc1ccc2oc(-c3cccc(N)c3)nc2c1: -2
- O=S(=O)(O)c1ccc2c(N=Nc3c(O)ccc4ccccc34)cccc2c1: 4
- O=C(O)[C@H]1[C@@H](C2CCCCC2)O[C@@H](C2CCCCC2)O[C@H]1C(F)(F)F: -6
- O=C(Cc1ccccc1F)NC1=C(Cl)C(=O)c2ccccc2C1=O: 29
- CNC(=O)OCc1c(COC(=O)NC)c(C)n(-c2ccc(Cl)c(Cl)c2)c1C: -32
- CCOC(=O)C1=C(C)NC(C)=C(C(=O)OCC)C1c1ccc(Cl)cc1: 4
- COC(=O)C1(N2CCOCC2)CCC([C@@H](c2ccccc2)C(C)[N+](=O)[O-])C1 (stereo partly drawn): 1
- CN(Cc1cccc2ccccc12)Cc1cccc2ccccc12: 9
- O=C(c1c(F)c(F)c(F)c(F)c1F)c1c(F)c(F)c(F)c(F)c1F: 28
- O=Cn1c2ccccc2c2ccccc21: -41
- O=C(CCC(=O)c1ccc(O)cc1)Oc1ccc(O)cc1: 1
- O=C(Nn1c(-c2ccccc2)nc2ccccc2c1=O)c1ccc(Cl)cc1: -2
- COc1ccc(C(=O)NCCN(C)C)c2nc3ccccc3cc12: 19
- Nc1cccc2cc(Cl)cnc12: 13
- Cc1ccc(C(C)C)c(C(=C2C=CC(=[N+](C)C)C=C2)c2c(C(C)C)ccc(C)c2O)c1O: -2
- Cc1ccc(P(c2ccc(C)cc2)c2ccc(C)cc2)cc1: -1
- CN(C)CCNC(=O)c1cccc2nc3c4ccccc4c4ccccc4c3nc12: 5
- Cc1cc(NC(=S)SCc2ccc(Cl)cc2)ccc1Cl: 13
- CCN(CC)CCSc1c2ccccc2nc2cc(NCC(=O)Nc3ccccc3-c3ccccc3NC(=O)CNc3ccc4c(SCCN(CC)CC)c5ccccc5nc4c3)ccc12: 16
- O=C1OC(/C=C/c2ccccc2)Sc2ccccc21 (stereo not drawn): 1
- CC[C@]1(O)C[C@H]2CN(CCc3c([nH]c4ccccc34)[C@@](C(=O)OC)(c3cc4c(cc3OC)N(C)[C@H]3[C@@](O)(C(=O)OC)[C@H](OC(C)=O)[C@]5(CC)C=CCN6CC[C@]43[C@@H]65)C2)C1: -2
- CCN(CC)c1cccc(Nc2nc3ccccc3s2)c1: 7
- O=C1C(Br)=CC(Br)(Br)C=C1Br: -4
- O=C1C(C(O)(C(F)(F)F)C(F)(F)F)CCC1C(O)(C(F)(F)F)C(F)(F)F (stereo not drawn): 4
- COC1=C(N=[N+]=[N-])C(=O)c2ncccc2C1=O: 60
- O=C1c2ccccc2-c2ccc(NC(=O)C3CCCCC3C(=O)O)cc21 (stereo not drawn): 12
- c1ccc(C2=NNC3c4ccccc4-c4ccccc4N3C2)cc1 (stereo not drawn): 0
